Each record here notes measured growth.
# Test system: K-562 leukemia
# protocolText: NCI-60 one-dose screen, 48 h (100 = growth as untreated, 0 = no growth, -100 = all killed)
# assaySetup: 10 µM unless noted
Compounds without any hit were thinned out: in the full panel of roughly 83,000, 20% have a hit.
Supply the numeric figure in %, leaving out any unit text.

molecule | subjectOfTest | assayEndpoint | unitsText | value
O=C(CSc1nnc(-c2ccc3nc(-c4ccc(Cl)cc4)[nH]c3c2)o1)Nc1ccc(C(=O)/C=C/c2ccc(Cl)cc2)cc1 | K-562 leukemia | growth | % | 81.4
COc1ccccc1/C=C/C=N/NC1=NC2C(S1)N(C)C(=O)N2C (stereo not drawn) | K-562 leukemia | growth | % | 9.44
O=C(N/N=C/c1ccc(Br)s1)c1[nH]c2ccc(Br)cc2c1-c1ccccc1 | K-562 leukemia | growth | % | 7.72
Nc1nc(N)c2c(n1)NC(c1ccc(C(F)(F)F)cc1)CC(c1ccc(Nc3nc(NCCO)nc(Nc4ccc(Cl)cc4)n3)cc1)=N2 (stereo not drawn) | K-562 leukemia | growth | % | 1.08
CN1CCN(Cc2ccc(NC(=O)c3cncc(C#Cc4cnc5ccc(N6CCSCC6)nn45)c3)cc2C(F)(F)F)CC1 | K-562 leukemia | growth | % | -16.2
COc1ccc(/C=N/Nc2ccnc3cc(Cl)ccc23)cc1Cl | K-562 leukemia | growth | % | -52.8

Query block: So what does the record say about growth for CC(C)NC(=O)c1cc(-c2ccc(NC(=O)Nc3ccc(N4CCOCC4)c(C(F)(F)F)c3)cc2)nc2cccnc12 ?
Result block: 24.6

Query block: So what does the record say about growth for Cn1c(SCC(=O)Nc2ccc(-c3nc4ccc([N+](=O)[O-])cc4[nH]3)cc2)nc2ccccc2c1=O ?
Result block: 93.6

====

# Tested on: DU-145 prostate
# protocolText: NCI-60 one-dose screen, 48 h (100 = growth as untreated, 0 = no growth, -100 = all killed)
# assaySetup: 10 µM unless noted
The panel holds about 83,000 compounds, 20% with a hit somewhere; the sample as a whole holds those more often.
Record label 1 whenever growth is at 60% or higher; record label 0 when lower.

Before answering, review these 5 worked examples.
molecule | label
COc1cc(OC)c(C2C(Cl)C(=O)N2Nc2ncnc3ccccc23)cc1OC (centres undefined) | label 1
COc1ccc(-c2cc(C(=O)N=Nc3c(O)[nH]c4ccccc34)c3ccccc3n2)cc1OC | label 1
Cc1cc2nc3c4cc(Cl)ccc4n(CC(=O)NCCN(C)C)c3nc2cc1C | label 1
CCN1CCN(S(=O)(=O)c2oc(-c3ccc(Cl)cc3)nc2C#N)CC1 | label 1
C#C[C@]1(O)CC[C@H]2[C@@H]3CC=C4c5sc(Nc6ccc(Cl)cn6)nc5CC[C@]4(C)[C@H]3CC[C@@]21C | label 1

Query block: Exam item: decide whether the reported growth for CC(C)(C)Nc1nc2c(OCCc3ccccc3)cccn2c1-c1ccc(Cl)cc1 is at least 60%.
Result block: label 0

Query block: Exam item: decide whether the reported growth for N#Cc1c(-c2ccc(Cl)cc2)nc(SCc2ccccc2)nc1N1CCNCC1 is at least 60%.
Result block: label 1

Query block: Exam item: decide whether the reported growth for OC1CCc2c(-c3ccc4ncnc(N5CCc6cc(F)c(Cl)cc65)c4c3)cncc21 (centres undefined) is at least 60%.
Result block: label 0

Query block: Exam item: decide whether the reported growth for O=C(CSc1nc2sc3c(c2c(=O)n1-c1ccc(Cl)cc1)CCCC3)NNC(=O)Nc1ccc(Cl)c(C(F)(F)F)c1 is at least 60%.
Result block: label 0

====

# System: UACC-257 melanoma
# protocolText: NCI-60 one-dose screen, 48 h (100 = growth as untreated, 0 = no growth, -100 = all killed)
# assaySetup: 10 µM unless noted
This is part of a sample that, as a whole, favours compounds with a hit. Of some 83,000 tested, about 20% had one in any assay.
Record label 1 whenever growth is at 90% or higher; record label 0 when lower.

compound | label
CC(=O)c1ccc(Nc2nc(SC(C)C)nc(-c3ccccc3)c2C#N)cc1 | label 1

Query block: Exam item: decide whether the reported growth for N#Cc1nc(-c2ccccc2)oc1S(=O)(=O)N1CCCCC1 is at least 90%.
Result block: label 1

Query block: Exam item: decide whether the reported growth for Nc1c(C(=O)c2ccc(Br)cc2)oc2nc(-c3cnccn3)cc(-c3cccs3)c12 is at least 90%.
Result block: label 1

====

# Tested on: LOX IMVI melanoma
# protocolText: NCI-60 one-dose screen, 48 h
# assaySetup: 10 µM unless noted
About 83,000 compounds went through this panel and 20% of them were active in at least one assay; those are over-represented in the sample as a whole. Active and inactive are the calls of the source. Rule for the calls: active = growth percent below 10; inactive = the rest.
Reply using exactly one outcome from 1 for active, 0 for inactive

compound | subjectOfTest | label
COc1cccc(N2CCN(c3ncnc4c3[nH]c3ccc(F)cc34)C[C@@H]2C)c1 | LOX IMVI melanoma | 1
Clc1ccc2c(OCCCN3CCOCC3)c3oc4ccccc4c3nc2c1 | LOX IMVI melanoma | 0
CN(C)CCCOc1c2ccccc2nc2c1oc1ccc(Cl)cc12 | LOX IMVI melanoma | 1
O=C1Nc2ccccc2Oc2ccc(S(=O)(=O)CC3CO3)cc21 (stereo unspecified) | LOX IMVI melanoma | 0

Query block: Which result was noted for this compound in the test: C=CCSc1ccc2c(c1)C(N1CCNCC1)=Nc1ccccc1O2
Result block: 0

Query block: Which result was noted for this compound in the test: CCOC(=O)c1c(Nc2ccccc2)nn2c(N)c(C#N)c(-c3ccc(Cl)cc3)nc12
Result block: 0

====

# Tested on: SNB-75 CNS
# protocolText: NCI-60 one-dose screen, 48 h
# assaySetup: 10 µM unless noted
The panel holds about 83,000 compounds, 20% with a hit somewhere; the sample as a whole holds those more often. Calls of active or inactive are those of the source. Rule for the calls: active = growth percent below 10; inactive = the rest.
Reply using exactly one outcome from 1 (active), 0 (inactive)

entrySmiles | label
Cc1cc(=O)oc2cc(OCCCOc3ccc(/C=C/C(=O)Nc4ccc(Cl)cc4)cc3)ccc12 | 0
CCC/C=C/C=C/C(=O)N[C@@H](Cc1cc(F)cc(F)c1)C(=O)N[C@@H]1C(=O)N2CCC[C@H]2C(=O)N2CCCC[C@H]2C(=O)N[C@@H](C)C(=O)N2C[C@H](C)C[C@H]2C(=O)O[C@H]1C | 0
Clc1ccc2oc3c(NCCCn4ccnc4)c4ccccc4nc3c2c1 | 0

Query block: Which result was noted for this compound in the test: CNC(=O)c1cc(-c2ccc(NC(=O)Nc3ccc(N4CCN(C)CC4)c(C(F)(F)F)c3)cc2)nc2cccnc12
Result block: 1

====

# System: SK-MEL-5 melanoma
# protocolText: NCI-60 one-dose screen, 48 h
# assaySetup: 10 µM unless noted
This is part of a sample that, as a whole, favours compounds with a hit. Of some 83,000 tested, about 20% had one in any assay. Activity calls are given as the source filed them. How the source made its calls: active means growth percent below 10; inactive means the rest.
Reply using exactly one outcome from label 1 for active, label 0 for inactive

compound | label
O=C(CCN1C(=O)/C(=C/c2ccccc2F)SC1=S)N1CCOCC1 | label 0
COc1cc(OC)c(S(=O)(=O)NNC(=O)c2ccncc2)cc1C(=O)/C=C/c1ccc(C)cc1 | label 0
c1ccc2c(NCCCn3ccnc3)c3oc4ccccc4c3nc2c1 | label 1

Query block: Which result was noted for this compound in the test: N[C@@H](Cc1cn(-c2ccnc3ccccc23)nn1)C(=O)O
Result block: label 0

Query block: Which result was noted for this compound in the test: C#C[C@]1(O)CC[C@H]2[C@@H]3CC=C4c5sc(Nc6ccc(Cl)cn6)nc5CC[C@]4(C)[C@H]3CC[C@@]21C
Result block: label 0

Query block: Which result was noted for this compound in the test: CN(C)c1ccc(/C=c2\sc3nc4ccccc4n3c2=O)cc1
Result block: label 0

Query block: Which result was noted for this compound in the test: COc1ccc(/C=N/NC(=O)c2[nH]c3ccc(Br)cc3c2-c2ccccc2)o1
Result block: label 1

Query block: Which result was noted for this compound in the test: CC(C)NC(=O)c1cc(-c2ccc(NC(=O)Nc3ccc(N4CCOCC4)c(C(F)(F)F)c3)cc2)nc2cccnc12
Result block: label 0

Query block: Which result was noted for this compound in the test: CC(C)Sc1nc(Nc2ccc(S(N)(=O)=O)cc2)c(C#N)c(-c2ccc(F)cc2)n1
Result block: label 0

Query block: Which result was noted for this compound in the test: Clc1ccc2c(OCCCN3CCOCC3)c3oc4ccccc4c3nc2c1
Result block: label 0

Query block: Which result was noted for this compound in the test: CN(C)CCCNc1c2ccc(Cl)cc2nc2c1oc1ccc(Cl)cc12
Result block: label 0

Query block: Which result was noted for this compound in the test: O=C(N/N=C/c1ccc(Cl)s1)c1[nH]c2ccc(Br)cc2c1-c1ccccc1
Result block: label 1

Query block: Which result was noted for this compound in the test: Cn1c(SCC(=O)Nc2ccc(-c3nc4ccc([N+](=O)[O-])cc4[nH]3)cc2)nc2ccccc2c1=O
Result block: label 0

Query block: Which result was noted for this compound in the test: Clc1ccc2c(NCCCN3CCOCC3)c3oc4ccccc4c3nc2c1
Result block: label 0

Query block: Which result was noted for this compound in the test: Clc1ccc2c(NCCCn3ccnc3)c3oc4ccccc4c3nc2c1
Result block: label 0

Query block: Which result was noted for this compound in the test: CS(=O)(=O)c1ccc(-n2cc(/C=C/C(=O)c3ccc(NC(=O)CO[N+](=O)[O-])cc3)c(-c3ccc(Cl)cc3)n2)cc1
Result block: label 0

Query block: Which result was noted for this compound in the test: O=C1c2c(c3c4cccnc4[nH]c3c3ccc4ccccc4c23)C(=O)N1CCO
Result block: label 0

Query block: Which result was noted for this compound in the test: CCOC(=O)c1c(Nc2ccccc2)nn2c(N)c(C#N)c(-c3ccc(OC)cc3)nc12
Result block: label 0

Query block: Which result was noted for this compound in the test: O=C(c1ccc(O)cc1)C1[C@H](c2ccc(Cl)cc2)[C@@H](c2ccccc2)NC12C(=O)Nc1ccc(Cl)cc12 (stereo not given in full)
Result block: label 0

meta.source: PubChem BioAssay (NCI)
